Provide the recorded IC50 for the entries that follow.
# Tested on: HDMEC
# measurement-protocol: Inhibition of cell proliferation, HDMEC
# Type: cell-based
# condition-set: Homo sapiens
Where a name gives a salt, the structure may show the parent alone.
One number for each entry, in nM.

Answered examples (4):
{"molecule": "COc1ccc(/C=C(\\C)C(=O)c2cc(OC)c(OC)c(OC)c2)cc1NC(=O)[C@@H](N)CCCNC(=N)N[N+](=O)[O-] [Example 11, hydrochloride]", "IC50, nM": 400}
{"molecule": "COc1ccc(/C=C(\\C)C(=O)c2cc(OC)c(OC)c(OC)c2)cc1NC(=O)[C@@H](N)CO [Example 13, hydrochloride]", "IC50, nM": 30}
{"molecule": "COc1ccc(/C=C(\\C)C(=O)c2cc(OC)c(OC)c(OC)c2)cc1NC(=O)[C@@H]1CCCN1C [Example 12, hydrochloride]", "IC50, nM": 320}
{"molecule": "COc1cc(C(=O)/C(C)=C/c2ccc3c(ccn3C)c2)cc(OC)c1OC [Example 5]", "IC50, nM": 30}

Request: Record lookup: for HDMEC, what IC50 belongs to COc1ccc(/C=C(\C)C(=O)c2cc(OC)c(OC)c(OC)c2)cc1NC(=O)CN [Example 14, hydrochloride] ?
Result: 10

----------
# target-or-test-system: Tubulin (Sus scrofa, UniProt P02550+P02554)
# Construct: Tubulin is purified from pig brains according to the published methods
# Sequence (P02550 whole entry): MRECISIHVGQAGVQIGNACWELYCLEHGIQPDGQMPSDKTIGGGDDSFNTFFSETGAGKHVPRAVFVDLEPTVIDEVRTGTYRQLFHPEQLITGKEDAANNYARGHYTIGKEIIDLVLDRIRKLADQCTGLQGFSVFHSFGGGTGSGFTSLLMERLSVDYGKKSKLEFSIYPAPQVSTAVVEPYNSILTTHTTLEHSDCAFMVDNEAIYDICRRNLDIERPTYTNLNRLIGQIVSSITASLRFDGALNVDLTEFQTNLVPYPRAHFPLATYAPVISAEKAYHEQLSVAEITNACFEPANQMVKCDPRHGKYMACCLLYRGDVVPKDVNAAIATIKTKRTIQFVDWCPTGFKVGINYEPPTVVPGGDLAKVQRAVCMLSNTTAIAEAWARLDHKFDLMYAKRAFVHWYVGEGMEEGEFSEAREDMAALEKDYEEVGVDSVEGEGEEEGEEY
# Sequence (P02554 whole entry): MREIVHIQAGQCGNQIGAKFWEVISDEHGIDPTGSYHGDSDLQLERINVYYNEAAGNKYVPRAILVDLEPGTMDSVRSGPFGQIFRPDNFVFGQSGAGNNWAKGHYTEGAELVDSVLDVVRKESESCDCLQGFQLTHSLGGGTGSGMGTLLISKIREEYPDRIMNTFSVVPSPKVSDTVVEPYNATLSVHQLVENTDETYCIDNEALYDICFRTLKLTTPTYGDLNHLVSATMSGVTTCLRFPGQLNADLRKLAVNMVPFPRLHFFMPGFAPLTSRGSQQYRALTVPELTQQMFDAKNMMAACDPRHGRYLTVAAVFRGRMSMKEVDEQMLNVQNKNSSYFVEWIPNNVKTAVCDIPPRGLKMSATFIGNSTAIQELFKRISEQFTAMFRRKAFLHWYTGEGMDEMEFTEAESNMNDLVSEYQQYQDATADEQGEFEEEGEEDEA
# measurement-protocol: Assessment of the inhibition of tubulin polymerization (turbidimetry)
# condition-set: tubulin 10 μM, turbidity at 350 nm, 37° C.
# Method: Tubulin is purified from pig brains according to the published methods (Shelanski et al., 1973, Proc. Natl, Acad. Sci. USA, 70, 765-768. Weingarten et al., 1975, Proc. Natl, Acad. Sci. USA, 72, 1858-1862). […] The polymerization of the tubulin into microtubules is monitored by turbidimetry as follows; the tubulin is adjusted to a concentration of 10 μM (1 mg/ml) in the RB/2 30% glycerol buffer, to which is added 1 mM GTP and 6 mM MgCl2. […]
Where a name gives a salt, the structure may show the parent alone.
property-label: pIC50
Answers are plain numbers, as −log10 of the molar value.

Example cases with answers are listed next.
{"molecule": "COc1cc(C(=N/O)/C(C)=C/c2ccc3c(ccn3C)c2)cc(OC)c1OC", "pIC50": 5.46}
{"molecule": "COc1cc(C(=O)/C(C)=C/c2ccc3c(ccn3CCN(C)C)c2)cc(OC)c1OC [Example 20, hydrochloride]", "pIC50": 5.70}

Each of the following entries comes with a recorded value; kindly state pIC50 for each.
1. COc1cc(C(=O)/C(C)=C/c2ccc3c(ccn3CO)c2)cc(OC)c1OC
2. COc1cc(C(=O)/C(C)=C/c2ccc3c(ccn3CCN(C)C)c2)cc2c1OCO2

Result:
1: 6.30; 2: 5.70

Request: Need pIC50 of COc1cc(C(=O)/C(C)=C/c2ccc3c(ccn3C)c2)cc2c1OCO2 , thanks.
Result: 6.30

----------
Task for the reader: assign each of the following compounds its reported IC50.
# target-or-test-system: Tubulin (Sus scrofa, UniProt P02550+P02554)
# Construct: Tubulin is purified from pig brains according to the published methods
# measurement-protocol: Assessment of the inhibition of tubulin polymerization (turbidimetry)
# condition-set: tubulin 10 μM, turbidity at 350 nm, 37° C.
Structures can show the parent of a compound that is named as a salt.

{"compound": "COc1ccc(/C=C(\\C)C(=O)c2cc(OC)c(OC)c(OC)c2)cc1N [Example 1]", "target-or-test-system": "Tubulin (Sus scrofa, UniProt P02550+P02554)", "observed-value": "300 nM"}
{"compound": "COc1cc(C(=O)/C(C)=C/c2ccc3c(ccn3C)c2)cc(OC)c1OC [Example 5]", "target-or-test-system": "Tubulin (Sus scrofa, UniProt P02550+P02554)", "observed-value": "700 nM"}
{"compound": "COc1cc(C(=O)/C(C)=C/c2ccc3[nH]ccc3c2)cc(OC)c1OC [Example 19]", "target-or-test-system": "Tubulin (Sus scrofa, UniProt P02550+P02554)", "observed-value": "800 nM"}
{"compound": "COc1ccc(/C=C(\\C)C(=O)c2cc(OC)c(OC)c(OC)c2)cc1NC(=O)CN [Example 14, hydrochloride]", "target-or-test-system": "Tubulin (Sus scrofa, UniProt P02550+P02554)", "observed-value": "25000 nM"}
{"compound": "COc1cc(C(=N\\O)/C(C)=C/c2ccc3c(ccn3C)c2)cc(OC)c1OC [Example 8]", "target-or-test-system": "Tubulin (Sus scrofa, UniProt P02550+P02554)", "observed-value": "800 nM"}

List IC50 for every entry below, keeping the order given.
1. COc1cc(C(=O)/C(C)=C/c2ccc3c(c2)CCN3C)cc(OC)c1OC [Example 6]
2. COc1ccc(/C=C(\C)C(=O)c2cc(OC)c(OC)c(OC)c2)cc1NC(=O)[C@@H](N)C(C)C [Example 15, hydrochloride]
3. COc1ccc(/C=C(\C)C(=O)c2cc(OC)c(OC)c(OC)c2)cc1NC(=O)[C@@H](N)CO [Example 13, hydrochloride]
4. COc1cc(C(=NO)/C(C)=C/c2ccc3c(ccn3C)c2)cc(OC)c1OC (mixture of isomers) [Example 7]
5. COc1cc(/C=C(\C)C(=O)c2cc(OC)c(OC)c(OC)c2)ccc1N [Example 2]

Result:
["800 nM", "9000 nM", "10000 nM", "2000 nM", "2500 nM"]

For every item below, please supply its IC50.
1. COc1cc(C(=O)/C(C)=C/c2ccc3[nH]ccc3c2)cc2c1OCO2 [Example 17]
2. COc1ccc(OC)c(C(=O)/C(C)=C/c2ccc(OC)c(N)c2)c1.Cl [Example 3, hydrochloride]
3. COc1ccc(/C=C(\Br)C(=O)c2cc(OC)c(OC)c(OC)c2)cc1N [Example 4]

Result:
["800 nM", "500 nM", "600 nM"]

----------
# Test system: HDMEC
# measurement-protocol: Inhibition of cell proliferation, HDMEC
# Format: cell-based
# condition-set: Homo sapiens
Where a name gives a salt, the structure may show the parent alone.
Would you kindly list IC50 for each of these compounds?

{"compound": "COc1ccc(/C=C(\\C)C(=O)c2cc(OC)c(OC)c(OC)c2)cc1N [Example 1]", "target-or-test-system": "HDMEC", "IC50": "2.5 to 3.2 nM"}
{"compound": "COc1ccc(/C=C(\\C)C(=O)c2cc(OC)c(OC)c(OC)c2)cc1NC(=O)[C@@H](N)C(C)C [Example 15, hydrochloride]", "target-or-test-system": "HDMEC", "IC50": "30 to 60 nM"}
{"compound": "COc1cc(C(=NO)/C(C)=C/c2ccc3c(ccn3C)c2)cc(OC)c1OC (mixture of isomers) [Example 7]", "target-or-test-system": "HDMEC", "IC50": "300 to 500 nM"}

Count: 4. Required value per item: IC50.
1. COc1cc(/C=C(\C)C(=O)c2cc(OC)c(OC)c(OC)c2)ccc1N [Example 2]
2. COc1cc(C(=O)/C(C)=C/c2ccc3c(c2)CCN3C)cc(OC)c1OC [Example 6]
3. COc1ccc(OC)c(C(=O)/C(C)=C/c2ccc(OC)c(N)c2)c1.Cl [Example 3, hydrochloride]
4. COc1ccc(C=C(C)C(=O)c2cc(OC)c(OC)c(OC)c2)cc1NC(=O)[C@@H](N)CCCCN.Cl.Cl [Example 10, dihydrochloride]

Result:
1. 1.9 to 4 nM
2. 17 to 20 nM
3. < 19 nM
4. 207 to 225 nM

Recorded values, source patent US20030153611A1.
